Give measured Ka for each item. Keep answers brief.
# TARGET_DESC: T1, native human ApoC3 (human, UniProt P02656 21-99)
# T1 construct: also called nhuApoC3; native huApoC3
# PROTOCOL_DESCRIPTION: SPR, ApoC3 over captured IgG1, pH 7.4
Numbers only, in M⁻¹.

In the examples that follow, each entry is paired with its recorded Ka.
[ask] Tell me its Ka given mAb11 (antibody, IgG1, V domains shown, Produced as full length IgG1 (kappa) in ExpiCHO-S cells; also called humanized anti-ApoC3 antibody mAb11) VH: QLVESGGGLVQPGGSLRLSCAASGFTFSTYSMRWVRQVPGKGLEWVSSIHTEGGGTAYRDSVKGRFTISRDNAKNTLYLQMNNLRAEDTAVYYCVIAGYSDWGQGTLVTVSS VL: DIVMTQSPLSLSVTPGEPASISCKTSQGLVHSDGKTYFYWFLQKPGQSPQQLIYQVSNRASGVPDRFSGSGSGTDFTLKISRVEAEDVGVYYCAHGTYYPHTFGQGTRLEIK as the entry.
[reply] 7.73e+06

[ask] Return value of Ka for input mAb16 (antibody, IgG1, V domains shown, Produced as full length IgG1 (kappa) in ExpiCHO-S cells; also called humanized anti-ApoC3 antibody mAb16) VH: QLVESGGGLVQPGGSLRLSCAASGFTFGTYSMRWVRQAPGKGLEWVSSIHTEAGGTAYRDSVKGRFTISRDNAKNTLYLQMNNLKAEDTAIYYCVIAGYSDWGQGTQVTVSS VL: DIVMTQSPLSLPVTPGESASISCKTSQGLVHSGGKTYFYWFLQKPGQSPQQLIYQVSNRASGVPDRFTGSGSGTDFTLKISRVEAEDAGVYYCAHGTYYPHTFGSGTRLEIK , no commentary.
[reply] 1.68e+06

New cases:
[ask] Kindly indicate its recorded Ka. Item: mAb4 (antibody, IgG1, V domains shown, Produced as full length IgG1 (kappa) in ExpiCHO-S cells; also called humanized anti-ApoC3 antibody mAb4) VH: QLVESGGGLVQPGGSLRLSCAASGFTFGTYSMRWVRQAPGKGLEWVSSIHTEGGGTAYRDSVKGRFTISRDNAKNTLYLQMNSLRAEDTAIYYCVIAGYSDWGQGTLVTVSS VL: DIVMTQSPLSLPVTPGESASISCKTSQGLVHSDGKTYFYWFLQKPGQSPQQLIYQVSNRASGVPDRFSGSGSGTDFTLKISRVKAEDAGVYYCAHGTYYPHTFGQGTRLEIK
[reply] 8.06e+06
